- System: human PD1 on cells (human, UniProt Q15116 25-288)
- Sequence (Q15116 25-288 limits assumed): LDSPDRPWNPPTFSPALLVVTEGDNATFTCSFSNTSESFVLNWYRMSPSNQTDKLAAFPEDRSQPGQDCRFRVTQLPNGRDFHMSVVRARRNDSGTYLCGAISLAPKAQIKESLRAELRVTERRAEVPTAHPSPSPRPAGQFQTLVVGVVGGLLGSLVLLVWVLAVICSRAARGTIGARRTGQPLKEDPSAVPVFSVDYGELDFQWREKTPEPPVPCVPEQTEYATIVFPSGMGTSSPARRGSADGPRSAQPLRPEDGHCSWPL
- Procedure Text: cell-based or functional assay
The following binders are listed with their measured PD1 blocking activity (reporter assay) Vmax values.
# unit: RLU | format: bare number

For P-1153 (antibody, human IgG1, kappa, V domains shown, Full-length IgG1 L234A/L235A/G237A, kappa) VH: QVQLVQSGVEVKKPGASVKVSCKASGYTFTNYYMYWVRQAPGQGLEWMGGINPSNGGTNYAQKFQGRVTLTTDSSTTTAYMELKSLQFDDTAVYYCARRDYRFDMGFDYWGQGTTVTVSS VL: EIVLTQSPATLSLSPGERATLSCRASQGVSTSGYSYLAWYQQKPGQAPRLLIYLASYRASGVPARFSGSGSGTDFTLTISSLEPEDFAVYYCQHSRDLPLTFGGGTKVEIKR , write its PD1 blocking activity (reporter assay) Vmax.
30800
